Data origin, for the record: ChEMBL document CHEMBL1134668

# system tested: Thrombopoietin receptor (Homo sapiens, UniProt P40238)
# Sequence (P40238 whole entry): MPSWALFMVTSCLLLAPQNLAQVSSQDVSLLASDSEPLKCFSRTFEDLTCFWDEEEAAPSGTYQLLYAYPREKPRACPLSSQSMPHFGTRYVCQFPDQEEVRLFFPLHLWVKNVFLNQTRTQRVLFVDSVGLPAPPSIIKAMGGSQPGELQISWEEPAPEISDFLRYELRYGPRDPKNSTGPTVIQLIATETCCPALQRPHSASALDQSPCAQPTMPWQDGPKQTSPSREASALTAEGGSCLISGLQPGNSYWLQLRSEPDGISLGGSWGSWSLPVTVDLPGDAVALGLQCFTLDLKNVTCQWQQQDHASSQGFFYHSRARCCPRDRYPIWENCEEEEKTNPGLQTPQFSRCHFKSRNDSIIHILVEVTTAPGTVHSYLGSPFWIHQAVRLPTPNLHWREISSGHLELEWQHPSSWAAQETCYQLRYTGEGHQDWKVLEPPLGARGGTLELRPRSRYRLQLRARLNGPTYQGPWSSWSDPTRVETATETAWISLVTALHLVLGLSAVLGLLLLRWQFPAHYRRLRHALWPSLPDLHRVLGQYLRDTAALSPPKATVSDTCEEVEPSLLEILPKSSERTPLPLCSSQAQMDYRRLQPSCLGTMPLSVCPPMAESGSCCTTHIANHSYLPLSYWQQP
# method summary: Effective concentration for thrombopoietin luciferase activity was determined in BAF-3 cells
Consider the following compounds; for each one, report its EC50.
Give bare numbers, in nM.

Please supply EC50 for each of the following items, keeping them in order.
1. Cc1ccc(O)c(/N=N/c2c(O)cc(S(=O)(=O)O)c3ccccc23)c1
2. O=S(=O)(O)c1cc(O)c(/N=N/c2c(O)ccc3ccc(O)cc23)c2ccccc12
3. COc1ccc2ccc(O)c(/N=N/c3c(O)cc(S(=O)(=O)O)c4ccccc34)c2c1
4. Cc1[nH]n(-c2ccc(Cl)cc2)c(=O)c1/N=N/c1c(O)cc(S(=O)(=O)O)c2ccccc12
5. Cc1[nH]n(-c2ccc(F)cc2)c(=O)c1/N=N/c1c(O)cc(S(=O)(=O)O)c2ccccc12

1: 3000; 2: 2000; 3: 300; 4: 2000; 5: 500

Please supply EC50 for each of the following items, keeping them in order.
1. Cc1[nH]n(-c2cccc(Cl)c2)c(=O)c1/N=N/c1c(O)cc(S(=O)(=O)O)c2ccccc12
2. Cc1[nH]n(-c2ccccc2)c(=O)c1/N=N/c1c(O)cc(S(=O)(=O)O)c2ccccc12
3. CCNS(=O)(=O)c1cccc(-n2[nH]c(C)c(/N=N/c3c(O)cc(S(=O)(=O)O)c4ccccc34)c2=O)c1
4. Cc1[nH]n(-c2ccc(C(F)(F)F)cc2)c(=O)c1/N=N/c1c(O)cc(S(=O)(=O)O)c2ccccc12
5. Cc1ccc(-n2[nH]c(C)c(/N=N/c3c(O)cc(C(=O)O)c4ccccc34)c2=O)cc1C

1: 2000; 2: 2000; 3: 10000; 4: 100; 5: 1000
